Measured values drawn from ChEMBL document CHEMBL4196123 for this set.

Experiment: Volume of distribution at steady state in CD1 mouse at 5 mg/kg, iv by LC-MS/MS analysis
Format: ADME, organism-based
Details: in vivo, read-out: Vdss
MEASURED_ATTRIBUTE: Vd

Query block: Field request: Vd | item: `C[C@H]1COCCN1c1nc(-c2cnc(N)cc2F)cc(C2(S(C)(=O)=O)CC2)n1`
Result block: 1.4 L/kg

---

Target: Serine/threonine-protein kinase ATR (Homo sapiens) (UniProt Q13535)
Sequence (Q13535 whole entry, looked up): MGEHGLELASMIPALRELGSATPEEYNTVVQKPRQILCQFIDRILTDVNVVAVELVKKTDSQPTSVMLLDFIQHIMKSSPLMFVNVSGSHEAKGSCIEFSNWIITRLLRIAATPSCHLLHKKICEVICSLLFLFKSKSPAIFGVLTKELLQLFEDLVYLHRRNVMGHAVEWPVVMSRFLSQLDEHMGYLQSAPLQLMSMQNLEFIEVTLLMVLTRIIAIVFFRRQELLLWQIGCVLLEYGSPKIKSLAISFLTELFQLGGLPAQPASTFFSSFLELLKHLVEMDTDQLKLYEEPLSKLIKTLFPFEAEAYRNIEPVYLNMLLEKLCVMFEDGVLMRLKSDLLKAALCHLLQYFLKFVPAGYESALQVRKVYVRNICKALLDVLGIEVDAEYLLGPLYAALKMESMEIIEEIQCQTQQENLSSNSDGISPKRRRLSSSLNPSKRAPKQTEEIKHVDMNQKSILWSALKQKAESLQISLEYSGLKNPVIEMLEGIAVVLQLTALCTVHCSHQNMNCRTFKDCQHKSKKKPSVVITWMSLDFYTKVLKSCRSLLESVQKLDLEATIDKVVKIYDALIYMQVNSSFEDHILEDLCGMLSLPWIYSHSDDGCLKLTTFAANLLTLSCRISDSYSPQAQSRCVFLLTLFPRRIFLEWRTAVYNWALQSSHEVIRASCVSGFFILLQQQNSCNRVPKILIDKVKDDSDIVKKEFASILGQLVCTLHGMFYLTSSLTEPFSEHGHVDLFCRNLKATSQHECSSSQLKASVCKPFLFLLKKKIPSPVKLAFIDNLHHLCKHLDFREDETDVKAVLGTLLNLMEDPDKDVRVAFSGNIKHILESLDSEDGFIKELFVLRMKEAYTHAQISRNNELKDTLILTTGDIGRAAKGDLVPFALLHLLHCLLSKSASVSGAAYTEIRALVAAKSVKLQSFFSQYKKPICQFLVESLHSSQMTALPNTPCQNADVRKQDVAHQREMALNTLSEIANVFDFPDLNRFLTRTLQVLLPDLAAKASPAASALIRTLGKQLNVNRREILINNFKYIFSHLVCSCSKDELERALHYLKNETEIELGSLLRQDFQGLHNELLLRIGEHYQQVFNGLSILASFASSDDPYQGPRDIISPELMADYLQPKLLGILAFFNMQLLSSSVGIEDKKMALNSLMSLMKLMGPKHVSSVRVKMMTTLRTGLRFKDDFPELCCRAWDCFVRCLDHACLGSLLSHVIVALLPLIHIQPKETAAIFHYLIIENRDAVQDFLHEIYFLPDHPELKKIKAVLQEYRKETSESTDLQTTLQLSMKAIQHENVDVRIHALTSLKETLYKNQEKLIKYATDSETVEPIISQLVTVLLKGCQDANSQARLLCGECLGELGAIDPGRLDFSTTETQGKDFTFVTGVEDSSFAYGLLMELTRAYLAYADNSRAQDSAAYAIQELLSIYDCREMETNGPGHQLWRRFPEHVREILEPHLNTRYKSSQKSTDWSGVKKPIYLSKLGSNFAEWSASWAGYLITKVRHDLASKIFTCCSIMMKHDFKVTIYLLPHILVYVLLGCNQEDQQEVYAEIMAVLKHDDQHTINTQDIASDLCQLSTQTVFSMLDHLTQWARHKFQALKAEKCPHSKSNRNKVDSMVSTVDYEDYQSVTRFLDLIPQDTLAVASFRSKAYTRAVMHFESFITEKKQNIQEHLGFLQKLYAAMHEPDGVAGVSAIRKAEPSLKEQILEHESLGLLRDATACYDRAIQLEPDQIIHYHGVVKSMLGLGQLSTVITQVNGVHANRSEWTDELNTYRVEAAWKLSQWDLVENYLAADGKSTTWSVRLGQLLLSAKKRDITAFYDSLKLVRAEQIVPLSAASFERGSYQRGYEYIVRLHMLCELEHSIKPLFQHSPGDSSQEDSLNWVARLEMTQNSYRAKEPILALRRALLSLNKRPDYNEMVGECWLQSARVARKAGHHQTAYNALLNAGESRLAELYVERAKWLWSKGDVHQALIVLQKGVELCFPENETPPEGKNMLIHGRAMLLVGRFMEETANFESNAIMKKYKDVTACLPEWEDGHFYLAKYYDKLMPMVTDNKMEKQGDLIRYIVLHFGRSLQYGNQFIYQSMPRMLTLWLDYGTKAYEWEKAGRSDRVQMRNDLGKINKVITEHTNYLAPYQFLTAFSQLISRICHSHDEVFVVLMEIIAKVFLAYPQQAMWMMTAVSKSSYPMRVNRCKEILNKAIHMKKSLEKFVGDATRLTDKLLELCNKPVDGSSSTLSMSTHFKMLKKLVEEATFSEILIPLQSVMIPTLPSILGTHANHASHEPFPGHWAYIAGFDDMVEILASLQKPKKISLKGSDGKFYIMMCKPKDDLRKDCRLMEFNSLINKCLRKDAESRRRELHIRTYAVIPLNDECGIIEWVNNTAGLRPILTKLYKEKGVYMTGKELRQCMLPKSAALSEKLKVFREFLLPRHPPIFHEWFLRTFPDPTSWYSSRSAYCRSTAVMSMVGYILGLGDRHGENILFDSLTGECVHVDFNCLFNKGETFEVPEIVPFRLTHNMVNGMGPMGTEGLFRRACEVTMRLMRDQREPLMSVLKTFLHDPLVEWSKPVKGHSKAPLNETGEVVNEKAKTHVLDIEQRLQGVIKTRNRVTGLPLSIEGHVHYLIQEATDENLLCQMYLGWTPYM
Experiment: Inhibition of ATR in human HT-29 cells assessed as reduction in camptothecin-induced Chk1 phosphorylation at Ser345 residue up to 10 uM pretreated for 1 hr followed by camptothecin addition
Format: cell-based
Active and inactive are the calls of the source. The calls are words filed in the database; no cut-off is given here.

COMPOUND	TARGET_OR_TEST_SYSTEM	inhibition
CS(=O)(=O)Cc1cc(-c2cnc(N)cc2C(F)(F)F)nc(N2CCOCC2)n1	Serine/threonine-protein kinase ATR (Homo sapiens) (UniProt Q13535)	inactive
C[C@H]1COCCN1c1nc(-c2cnc(N)cc2C(F)(F)F)cc(C2(S(C)(=O)=O)CC2)n1	Serine/threonine-protein kinase ATR (Homo sapiens) (UniProt Q13535)	inactive
Nc1cc(C(F)(F)F)c(-c2cc(N3CCOCC3)nc(N3CCOCC3)n2)cn1 [BUPARLISIB]	Serine/threonine-protein kinase ATR (Homo sapiens) (UniProt Q13535)	inactive
CS(=O)(=O)C1(c2cc(-c3cnc(N)cc3C(F)(F)F)nc(N3CCOCC3)n2)CC1	Serine/threonine-protein kinase ATR (Homo sapiens) (UniProt Q13535)	inactive
